tested on: UACC-62 melanoma; assay: NCI tumour cell line growth inhibition, 48 h
readout type: TGI

Solved entries (count: 8):
1. CC(C)N(Cc1ccccc1)S(=O)(=O)c1n[nH]c(C(C)(C)C)n1    > 100 µM
2. O=C(c1ccccc1)c1ccccc1C(=O)c1ccccc1    > 100 µM
3. C=C1C(=O)O[C@H]2[C@H]([C@H](C)CCCC(C)=O)O[C@H]([C@@]3(C)CCC(=O)O3)C[C@@H]12    > 100 µM
4. CC1(C)Oc2ccc3c(=O)c4ccccc4oc3c2C1C(=O)O (configuration not stated)    > 100 µM
5. Cc1cc(C)c2c(c1)CC1(Cc3c(C)cc(C)cc3C1=O)C2=O (configuration not stated)    > 100 µM
6. COC(=O)/C(=N/O)C(C(=O)OC)C(=O)C(=O)Nc1c(Cl)cc(C)cc1S(=O)(=O)O (configuration not stated)    > 100 µM
7. C=C1C(=O)O[C@H]2[C@H]1CC/C(COC(=O)/C=C/c1c[nH]c3ccccc13)=C\CC[C@@]1(C)O[C@@H]21    0.379 µM
8. CCCC(=O)Nc1cc(/C=C/C(=O)N2C[C@H]3C[C@@]34C2=CC(=O)c2[nH]cc(C)c24)n(C)c1    < 0.0025 µM

Hi, could you look up TGI for each item in my list?
1. CC(=O)Nc1ccc(/C=C(\NC(=O)c2ccccc2)C(=O)NNS(=O)(=O)c2ccc(C)cc2)cc1
2. C[C@H]1CC2=CC(=O)CC[C@]2(C)[C@H]2CC[C@@]3(C)[C@@H](CC[C@]3(C)O)[C@H]12
3. Cc1nn(-c2ccccn2)c2c1C(SC#N)=C(C=O)CC2
4. Cn1c(=O)c2[nH]c(CCC(=O)O)nc2n(C)c1=O

Result ::
1. > 100 µM
2. > 67 µM
3. 18.3 µM
4. > 100 µM

Hi, could you look up TGI for each item in my list?
1. CCOC(=O)c1cc(-c2ccn(C(C)=O)c2)c(-c2cc(C)co2)[nH]1
2. c1ccc(COc2cccc3cccnc23)cc1
3. CCC1OC(/C(C)=C/C(C)/C=C/C2C(C)C2/C=C/C2OC(CC(=O)O)CC(O)C2O)CC=C1C (configuration not stated)
4. O=C(Nc1ccc(-c2ccnc(Nc3ccc(N4CCOCC4)cc3)n2)cc1)C1CCCN1 (configuration not stated)
5. Oc1ccc2ccccc2c1OCc1nnc(CCCCCCCCc2nnc(COc3c(O)ccc4ccccc34)o2)o1
6. Cc1cc(Cl)ccc1NC(=O)CCCC(=O)C(C(=O)c1ccccc1)c1ccccc1 (configuration not stated)
7. N=C1C(c2nc(-c3ccc(Br)cc3)cs2)=C(O)CN1CC1CCCO1 (configuration not stated)

Result ::
1: > 100 µM; 2: > 100 µM; 3: > 50 µM; 4: 20.8 µM; 5: > 100 µM; 6: > 100 µM; 7: > 100 µM

Hi, could you look up TGI for each item in my list?
1. COc1cc(C(=O)C/C(CCC(=O)Nc2ccc(Cl)cc2Cl)=N/Nc2nnc(C)n2N)ccc1O
2. c1ccc(CNc2ncnc3n[nH]nc23)cc1
3. CCC1CCC2c3c([nH]c4ccccc34)C3C(=O)N(c4ccc(OC)cc4)C(=O)C3C2C1 (configuration not stated)
4. N#C/C(=C\c1cccnc1)c1nc2ccccc2o1
5. CCCC(=O)OC1CC(n2cc(F)c(=O)[nH]c2=O)OC1CO (configuration not stated)
6. CCOC(=O)/C(C#N)=C(N)/C(=N\Nc1cccc(C(F)(F)F)c1)C(=O)OCC
7. Cc1nnc(CC#N)n1NC(=O)CC#N

Result ::
1. > 100 µM
2. > 100 µM
3. > 100 µM
4. > 100 µM
5. > 10 µM
6. > 100 µM
7. > 100 µM

Hi, could you look up TGI for each item in my list?
1. CCOC(=O)C[n+]1ccc2c([nH]c3cc(OC)ccc32)c1C
2. c1cc2ccc1CNCCN1CCNCc3ccc(cc3)Oc3ccc(cc3)CNCCN(CCNCc3ccc(cc3)O2)CCNCc2ccc(cc2)Oc2ccc(cc2)CNCC1

Result ::
1. > 100 µM
2. 3.1 µM

Hi, could you look up TGI for each item in my list?
1. N#Cc1c(C#N)c(-c2ccccc2)n(/N=C\c2ccccc2)c1N
2. CN(C)C=Nc1nncc2n[nH]nc12
3. CCC1(CC)C(=O)[N-]C(=O)[N-]C1=O.[Au+].[Au+].c1ccc([PH+](c2ccccc2)c2ccccc2)cc1.c1ccc([PH+](c2ccccc2)c2ccccc2)cc1
4. COc1cc(CC2CC(c3ccc4c(c3)OCO4)OC2=O)cc(OC)c1OC (configuration not stated)
5. COC(=O)C1[C@H](C(=O)OC)C1(Br)CBr (some centres not stated)
6. CCCCCCCCC[n+]1cccc(C2C(C(=O)OCC)=C(C)NC(C)=C2C(=O)OCC)c1

Result ::
["41.5 µM", "> 100 µM", "2.2 µM", "> 100 µM", "> 100 µM", "3.54 µM"]

Hi, could you look up TGI for each item in my list?
1. CN(C)CCNc1c2c(c(NCCN(C)C)c3c(CO)c[nH]c13)C(=O)c1ccccc1C2=O
2. O=c1/c(=C/c2ccc(-c3ccc(Cl)cc3Cl)o2)sc2n1[C@@H](c1ccc3c(c1)OCO3)C=C(c1cc(F)c(Cl)cc1Cl)N=2
3. O[C@H](CN1CC1)[C@@H](O)CN1CC1

Result ::
["21.7 µM", "> 100 µM", "> 100 µM"]
